biological target: TLR7 receptor (Homo sapiens, UniProt Q9NYK1); construct: PBL contain as a subpopulation plasmacytoid dendritic cells which are the natural interferon producing cells; endogenous in cells; assay: PBL/HCV replicon bioassay; conditions: concentration applied to PBL (24 h) giving 50% reduction of HCV replicon levels (luciferase) after transfer of PBL culture medium to Huh-7 replicon cells (48 h)
Sequence (Q9NYK1 27-1049): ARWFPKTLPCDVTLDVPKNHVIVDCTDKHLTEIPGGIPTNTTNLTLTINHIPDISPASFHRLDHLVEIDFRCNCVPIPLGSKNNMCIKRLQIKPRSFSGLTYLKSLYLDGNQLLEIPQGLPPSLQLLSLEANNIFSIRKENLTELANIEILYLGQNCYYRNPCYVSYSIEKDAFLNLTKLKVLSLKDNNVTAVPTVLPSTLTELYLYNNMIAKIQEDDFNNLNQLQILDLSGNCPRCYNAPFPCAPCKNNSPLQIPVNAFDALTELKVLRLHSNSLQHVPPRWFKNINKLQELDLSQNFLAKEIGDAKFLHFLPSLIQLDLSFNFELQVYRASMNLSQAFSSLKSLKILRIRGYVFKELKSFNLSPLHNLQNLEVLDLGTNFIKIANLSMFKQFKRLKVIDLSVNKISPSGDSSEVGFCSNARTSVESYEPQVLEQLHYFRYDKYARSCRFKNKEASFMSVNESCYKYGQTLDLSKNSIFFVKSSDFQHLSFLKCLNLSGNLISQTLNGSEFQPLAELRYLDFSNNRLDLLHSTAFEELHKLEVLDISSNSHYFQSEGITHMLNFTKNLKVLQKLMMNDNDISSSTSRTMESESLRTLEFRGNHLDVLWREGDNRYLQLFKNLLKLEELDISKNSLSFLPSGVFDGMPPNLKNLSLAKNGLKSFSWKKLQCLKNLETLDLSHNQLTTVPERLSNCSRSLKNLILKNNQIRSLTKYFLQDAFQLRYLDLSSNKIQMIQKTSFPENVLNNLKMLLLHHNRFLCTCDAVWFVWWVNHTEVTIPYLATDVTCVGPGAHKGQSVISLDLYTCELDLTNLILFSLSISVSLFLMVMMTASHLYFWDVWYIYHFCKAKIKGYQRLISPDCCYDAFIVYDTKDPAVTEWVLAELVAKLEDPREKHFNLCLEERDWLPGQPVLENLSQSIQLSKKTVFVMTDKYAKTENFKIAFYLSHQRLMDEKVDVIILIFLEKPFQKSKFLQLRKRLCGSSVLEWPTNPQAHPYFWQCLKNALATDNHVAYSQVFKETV
Listed next: entries and their corresponding pEC50.
pEC50 here is simply -log10 of the concentration when that concentration is written in mol/L.

Please review the following examples before continuing.
CCc1coc(-c2cc3c([nH]c(=O)n3Cc3ccc(C)nc3)c(N)n2)n1 [Example 20] | 6.15
Cc1nc(N)c2[nH]c(=O)n(Cc3ccc(F)cc3)c2c1C [Example 61] | 5.77
Nc1nc(-c2ccccc2F)cc2c1[nH]c(=O)n2Cc1ccccc1 [Example 22] | 6.35

Note: attention shifts to another entry.
So what's the measured pEC50 for this one? Nc1nc(C(F)(F)F)cc2c1[nH]c(=O)n2Cc1ccc(F)cc1 [Example 54]
6.52

Value source: patent US7691877B2
